METHOD: soluble fraction after stress (log2 fold change); higher = more stays soluble; pooled small domains, quantitative proteomics
CONDITION LABEL: stress: pH 4
Listing of recorded soluble fraction (log2) by entry.
# output: bare number, no unit

[Q] State its soluble fraction (log2): HMLVSPLDEIPGIGRNRKKTLLNHFGSAKTIEGASLEDLKKVDGISELIAKKIYNYFHLNKNF
[A] 0.104

[Q] State its soluble fraction (log2): HMTTEIVRMKKDVKIGQEITAKDIEVVEVGAYNLPDEVIRSSEEVVGKYVSSELLKGEYVLPSKISDTP
[A] -0.53

[Q] State its soluble fraction (log2): HMILNDRSELLDVVKRVIAANPASVADYRKGKKKVLGFLVGQAMKETKGQADPRILNELFLQELGEN
[A] 0.0701

[Q] State its soluble fraction (log2): HMQETKDEGAQVLLNKINALVAAVQGQIITPEEAAIKLATDGDLDLDVDARVAAIEEFNKKLSEAQNN
[A] -0.682

[Q] State its soluble fraction (log2): HMQQSQLDDIKSVVGGDEGYNKLREWTQANVPDETLKAFDKILDTQDPTMIKVAVEGFAAQMRQAE
[A] -0.508

[Q] State its soluble fraction (log2): HMQNAETPDVAAEFRTWTSADGQFQVIAKLVKLDGESVHLERQDDGRQIAVPLGKLSSEDRLFLRGVRP
[A] -0.0636

Below: the item to evaluate.
[Q] State its soluble fraction (log2): HMGDTISVPAVRTLAYNKAMDILNAEGLKGIVADSVYDNHTAPGTVIEQNPKAGTIVKEGREVFLTIHA
[A] -0.0483

---

Listing of recorded soluble fraction (log2) by entry.
METHOD: soluble fraction after stress (log2 fold change); higher = more stays soluble; pooled small domains, quantitative proteomics
CONDITION LABEL: stress: pH 4

Examples from the recorded data:
[Q] State its soluble fraction (log2): HMDASFTYSLETHPAGVLVRVDGLEYETPFSILLPQGVHRLEVAGEERFFYLSETTHQFLEID
[A] -0.714

[Q] State its soluble fraction (log2): HMAREQISVSQMVRDVRDGQVKNIEVLGQELRLSYADGSQKVTRKEEGQQALEILFASDIDLAALDLEVQ
[A] -1.16

[Q] State its soluble fraction (log2): HMNRQTGTVKWFNDAKGFGFITPESGPDLFVHFRSIQGAGFKSLQEGQRVTFVAVQGQKGMQADQVQA
[A] -0.429

[Q] State its soluble fraction (log2): HMANIAVTIPTGSSGDRIADILLQAGLIKDKQDFNQAVIAAGAEGKLRAGYFVIPSNATPAEIISILT
[A] -0.253

[Q] State its soluble fraction (log2): HMPVRIYEISKKLGLENKEVLATAKSLGIAAAKVPSSSLDKITAEYLEEEILKSHPEVAARLK
[A] ≥ 0.43

New cases:
[Q] State its soluble fraction (log2): HMKKPAERRKELVDAAAHLFAEKGYENTSVRDILDAVGGAPGMFYYYFKSKQDIYVAVMEDF
[A] -1.1

[Q] State its soluble fraction (log2): HMEDYYKILGVQSNSNPDDIKKAYRKLSLKHHPDRGGDASEFKKINEAYQTLGTPEKRKMYDMQQNN
[A] ≥ 0.43

[Q] State its soluble fraction (log2): HMIVEIVPSALHGERVDRIVAFILDVSRSVASGLVERGAVHVDGSVETSGKVRLVEGQEVSVDPSQVPG
[A] -0.528

---

METHOD: soluble fraction after stress (log2 fold change); higher = more stays soluble; pooled small domains, quantitative proteomics
CONDITION LABEL: stress: pH 4
Classify by measured soluble fraction (log2): MET if it is equal to or exceeds -0.3, NOT MET if it is smaller.

Observe how each entry below is paired with its result.
[Q] Check this sequence for soluble fraction (log2) at or above -0.3: HMSVLQGLIESFKAGDRNLYEVAERLNVTEPFLAEALKDYRARFPKGVQVDNFWISFRPYLTIAEV
[A] NOT MET

[Q] Check this sequence for soluble fraction (log2) at or above -0.3: HMDEEGDALDREYEDQIRLGDEAFDAEDWTSAQRAYTAALELRPDERYPKNRLRRLASLQEDV
[A] MET

New cases:
[Q] Check this sequence for soluble fraction (log2) at or above -0.3: HMPTLNIVDGHIAASDGVRILSIHNVTGRRYATSSKLPAGIYIVVLMPAKAETPLTVKVIVEA
[A] MET

[Q] Check this sequence for soluble fraction (log2) at or above -0.3: HMGKKYVPGMAVKLSAVPLYAASTSKVPSTHVTGTYYLWDDEVVRGRLRITNLKSRVGISGQVTGWIDKDR
[A] MET

[Q] Check this sequence for soluble fraction (log2) at or above -0.3: HMEKEEELNSIRPDLDGNDIMEILGVPAGPKVGKAYNYLLNVRLDEGPLSRAEAISRLEAWWENQ
[A] NOT MET

[Q] Check this sequence for soluble fraction (log2) at or above -0.3: HMIMNLNVLANNVRRLRTAQRLSQSALASKAGLSVPAIKNLENARNEPRVNTVQVIAHALEVRLQDLFAPT
[A] MET

[Q] Check this sequence for soluble fraction (log2) at or above -0.3: HMAHYYVRNGYYYYQRRIPLDLRKFYSGANIKASLKTKDPAIAALFVAKFDRQYDAEFAQRRLNPD
[A] MET

[Q] Check this sequence for soluble fraction (log2) at or above -0.3: HMSQYVPDPVLNAALVGYLDFRKQAGKPMTDYSIRLLLVDLAKLSGNPQEQAAILDQSTKNNWIGVYALG
[A] NOT MET

---

METHOD: soluble fraction after stress (log2 fold change); higher = more stays soluble; pooled small domains, quantitative proteomics
CONDITION LABEL: stress: pH 4
ENDPOINT: soluble fraction (log2)
# output: bare number, no unit

[Q] State its soluble fraction (log2): HMFYNSSDNAYKILEINKSATVDEIKAAYRKMAKKYHPDKVIHLGQEHQKGAEEKFRQVQEAYEELQKERG
[A] 0.297

[Q] State its soluble fraction (log2): HMTNYNTEKIIPEEQAGKRLDVVLANIFPEFSRSRLKNWIIDGFILVDGKVLRPRDFVTGGELVSIDVIV
[A] -0.356

[Q] State its soluble fraction (log2): HMEVSLEDKMDYLTNYATTHKNFSFRNLLESSSGKIEVIVTFLAILELMKMGRINISQEHIFDDIIIESRI
[A] -1.8

[Q] State its soluble fraction (log2): HMDSSITLMRMYIPKGHNWENKLISDVSMPTNSLALMIKRNGTTIIPKGDTMILAKDTLILSVPSYEPS
[A] -1.86

Below: the item to evaluate.
[Q] State its soluble fraction (log2): HMSSTSTKTQNIVHIVKSGETLSAIASKYGVSVDNIKKWNNLSSDKLSIGQKLKINPTTQTSS
[A] -0.186

---

METHOD: soluble fraction after stress (log2 fold change); higher = more stays soluble; pooled small domains, quantitative proteomics
CONDITION LABEL: stress: pH 4
Classify by measured soluble fraction (log2): rule met if it is equal to or exceeds -1, rule not met if it is smaller.

[Q] Check this sequence for soluble fraction (log2) at or above -1: HMAPEVTVHDGSIVVRGHVGGVTVYDESGRQIASVQSRGAVAIPVPAGHTYLYIVKPEGKPAIKVRAAH
[A] rule met

[Q] Check this sequence for soluble fraction (log2) at or above -1: HMDGIGLRVRMIREGVGLTQKQLAEHLGMQRTALVQVEAGSRKLSASELIGVARFFNITVEQFLDPEK
[A] rule not met

New cases:
[Q] Check this sequence for soluble fraction (log2) at or above -1: HMAVSDAAEEYGKAGTPLVILAGKEYGSGSSRDWAAKGPYLQGVRAVLAESYERIHRSNLVGMGIVPLTYK
[A] rule met

[Q] Check this sequence for soluble fraction (log2) at or above -1: HMTGKVKWYDADKGFGFVTEDGGRDVYVRKSALPQGVETLKAGQRLEFGIAEGRRGPQALSVR
[A] rule met

[Q] Check this sequence for soluble fraction (log2) at or above -1: HMQERQREGFVQQLRGKYSGQVVMRLFPELQGKALGEFMRKFEAQWEDHEAVLAAMEAHEIESRLKVFK
[A] rule not met

[Q] Check this sequence for soluble fraction (log2) at or above -1: HMDEVLDQFVRGQIYGYIRANPGDIYSSIRDNLGLKNGVTTYHLDVLAREEYVYSEIDGTNRRFYPSGWEE
[A] rule not met

[Q] Check this sequence for soluble fraction (log2) at or above -1: HMLQKEVHQQIQQALRALPYHQRTAIVLYYYEGMSVKEIAQATGSMQGTVQSRLFFARKKLRPILESILKK
[A] rule not met

[Q] Check this sequence for soluble fraction (log2) at or above -1: HMSSEQRSVLFPNLAETDKVAVIEALMAAGVNARVDSASGRVTVPSGDYYNSRAILAAQGLPTS
[A] rule met
